Known Kd of a selection of binders
- tested_system: T1, recombinant human G-CSF (Genscript) (human, UniProt P09919-2 31-204, limits assumed)
- T1 construct: also called hG-CSF; granulocyte colony stimulating factor
- T1 sequence (looked up): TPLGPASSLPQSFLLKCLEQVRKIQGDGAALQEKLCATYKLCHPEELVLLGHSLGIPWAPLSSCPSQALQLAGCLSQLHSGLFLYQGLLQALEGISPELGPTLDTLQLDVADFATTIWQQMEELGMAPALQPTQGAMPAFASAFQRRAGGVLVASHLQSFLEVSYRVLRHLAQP
- assay: SPR (Antigen binding (SPR)); antibody captured on an anti-Fc surface, antigen flowed over
observable: Kd (nM)

humanized 1B11 antibody variant 13 (h2L/h2H) (antibody, V domains shown, variable domains only; also called clone 13) VH: QVQLVQSGAEVKKPGASVKVSCKASGYTFPIYTMHWIRQAPGQGLEWIGYINPSIGYANYNQKFRDRATLTADTSTSTAYMELSSLRSEDTAVYYCARGGYGDSLFAYWGQGTLVTVSS VL: DIVMTQSPLSLPVTPGEPASISCRSSKSLLHSNGITYLYWYLQKPGQSPQLLIYQMSNLASGVPDRFSSSGSGTDFTLKISRVEAEDVGVYYCAQNLELPYTFGQGTKLEIK	0.2
humanized 1B11 antibody variant 7 (h1L/h1H) (antibody, V domains shown, also called clone 7; Variant 7 anti-G-CSF antibody) VH: QVQLVQSGAEVKKPGASVKVSCKASGYTFPIYTMHWVRQAPGQGLEWMGYINPSIGYANYNQKFRDRVTITADTSTSTAYMELSSLRSEDTAVYYCARGGYGDSLFAYWGQGTLVTVSS VL: DIVMTQSPLSLPVTPGEPASISCRSSKSLLHSNGITYLYWYLQKPGQSPQLLIYQMSNLASGVPDRFSGSGSGTDFTLKISRVEAEDVGVYYCAQNLELPYTFGQGTKLEIK	0.29
humanized 1B11 antibody variant 15 (h2L/h4H) (antibody, V domains shown, variable domains only; also called clone 15) VH: QVHLVQSGAEVKKPGASVKVSCKASGYTFPIYTMHWIKQAPGQGLEWIGYINPSIGYANYNQKFRDKATLTADKSTSTAYMELSSLRSEDTAVYYCARGGYGDSLFAYWGQGTLVTVSS VL: DIVMTQSPLSLPVTPGEPASISCRSSKSLLHSNGITYLYWYLQKPGQSPQLLIYQMSNLASGVPDRFSSSGSGTDFTLKISRVEAEDVGVYYCAQNLELPYTFGQGTKLEIK	0.12
1B11 antibody variant 1 (cL/cH) (antibody, V domains shown, also called clone 1; chimeric 1B11) VH: QVHLQQSGAELARPGASVKMSCKASGYTFPIYTMHWIKQRPGQGLEWIGYINPSIGYANYNQKFRDKATLTADKSSSTAYMQLSSLTSEDSAVYYCARGGYGDSLFAYWGQGTLVTVSA VL: DIVMTQAAFSNPVTLGTSASISCRSSKSLLHSNGITYLYWYLQKPGQSPQLLIYQMSNLASGVPDRFSSSGSGTDFTLRISRVEAEDVGVYYCAQNLELPYTFGGGTKLEIK	0.1
